Assay: qHTS Assay for Agonists of the Thyroid Stimulating Hormone Receptor;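 note: the control signal comes from parental cells without the receptor; % of control where 0% means no effect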
Conditions: HEK293-CNG-TSHR cells (CNG channel as cAMP sensor), membrane potential dye, cAMP; measured here: parental cells max response
Protocol: NIH Chemical Genomics Center [NCGC] NIH Molecular Libraries Screening Centers Network [MLSCN] PI Name: Dr. Marvin Gershengorn, NIH Thyroid Stimulating Hormone Receptor […] High Throughput Screening. […] 23 nl/well compound or control was then added to the assay plates, which were incubated for additional 30 min before reading a Envision fluorescence plate reader (Perkin Elmer) in bottom-read mode for fluorescence intensity (emission at 590 nm). […]
Screen size: about 73,000 compounds; about 350 (0.48%) were called active. Roughly 17% stayed inconclusive and do not appear here. The sample holds actives, similar compounds and a random draw of the others, so the mix is not that of the screen.
activation overview
The reply should contain only the number, in %.

The examples below pair each entry with its known result.
Request: Recorded activation for CC(=O)N1[C@H](C)C=C[C@]1(Cc1ccccc1)C(=O)NCc1ccccn1 , please?
Result: 7.85

Request: Recorded activation for O=C(O)[C@@H](O)Cc1ccccn1 , please?
Result: 4.67

Request: Recorded activation for COc1cccc([C@H]2Oc3ccc(OC)cc3/C(=N\OCC[C@@H]3C=C[C@H](OC(C)=O)[C@H](COC(C)=O)O3)[C@@H]2O)c1 , please?
Result: 1.81

Request: Recorded activation for CCc1ccc(-c2nnn(Cc3nn[nH]n3)n2)cc1 , please?
Result: 16

Request: Recorded activation for CO[C@H]1COC(=O)CCC[C@@H](C)[C@H](OC)COC(=O)[C@@H](C)NC(=O)C/C=C\[C@@H]1C , please?
Result: 4.76

---
Request: Recorded activation for CCn1cc(NC(=O)Nc2ccc(OC)c(OC)c2)c(C(N)=O)n1 , please?
Result: 0.163

Request: Recorded activation for CC1CCCCN1CCCNC(=O)c1ccc(-n2c(=O)c(=O)[nH]c3ccccc32)cc1 (stereo not given) , please?
Result: -4.46

Request: Recorded activation for CCc1ccccc1N(CC(=O)NCCSCc1ccco1)S(C)(=O)=O , please?
Result: 6.61

Request: Recorded activation for Cc1nc2cnc(N3CCNCC3)nc2n(CCc2ccccc2)c1=O , please?
Result: 9.57

Request: Recorded activation for CCOc1ccccc1C1NC(=O)NC(C)=C1C(=O)OCc1ccco1 (stereo not given) , please?
Result: 0.325

Request: Recorded activation for CN(C)C(=O)c1ccc(-c2cncnc2Nc2ccccc2)cc1 , please?
Result: -2.37

Request: Recorded activation for COc1ccc(COC(=O)N/N=C2/C[C@@H](O)[C@@H](O)[C@@H]3[C@@H]4C(=O)N([C@@H](C)c5ccccc5)C(=O)[C@H]4CC[C@@H]23)cc1 , please?
Result: -0.62

Request: Recorded activation for O=C(CC1Nc2ccccc2NC1=O)Nc1ccccc1 (stereo not given) , please?
Result: -1.43

Request: Recorded activation for COc1ccc(S(=O)(=O)Nc2ccc(S(=O)(=O)N3CCCCC3)cc2)cc1OC , please?
Result: -4.42

Request: Recorded activation for CC(C)(C)c1ccc(C(=O)NCCC(=O)NCc2ccco2)cc1 , please?
Result: -0.34

Request: Recorded activation for COc1ccc(C2SCCN2S(=O)(=O)c2ccccc2)cc1OC (stereo not given) , please?
Result: 15.1

Request: Recorded activation for Cn1cccc1C(=O)N1CCC[C@@]2(CCN(Cc3nccs3)C2)C1 , please?
Result: 1.41

Request: Recorded activation for CC1CCN(C(=O)CSc2ccc3nnc(-c4cccc(F)c4)n3n2)CC1 , please?
Result: 0.67

Request: Recorded activation for Cc1nnc(NC(=O)CCC(=O)N2CCC(C)CC2)s1 , please?
Result: 5.36

Request: Recorded activation for Cn1c(=O)c(-c2ccccc2)nc2cnc(N3CCNCC3)nc21 , please?
Result: 4.18

Request: Recorded activation for Cc1ccc2oc(=O)ccc2c1 , please?
Result: 1.36

Request: Recorded activation for Cc1ccccc1NC(=O)NCc1ccco1 , please?
Result: 1.97

Request: Recorded activation for CCCC[C@@H]1C[C@H]1C(NC(=O)c1ccc(-c2ccccc2)cc1)c1ccc(-c2ccccc2)cc1 (stereo not given in full) , please?
Result: 1.42

Request: Recorded activation for CCOc1ccc(-c2nnn(CC(=O)N3CCN(c4ccc(OC)cc4)CC3)n2)cc1OCC , please?
Result: -8.4

Request: Recorded activation for COc1ccc(-c2nnn(Cc3nc(N)nc(N4CCCCC4)n3)n2)cc1 , please?
Result: 22

FYI, the data here is from PubChem BioAssay AID926.
